Provenance of the data: ChEMBL document CHEMBL3351571

SYSTEM NAME: Mas-related G-protein coupled receptor member X1 (Rattus norvegicus)
Sequence (Q8R4G1 whole entry): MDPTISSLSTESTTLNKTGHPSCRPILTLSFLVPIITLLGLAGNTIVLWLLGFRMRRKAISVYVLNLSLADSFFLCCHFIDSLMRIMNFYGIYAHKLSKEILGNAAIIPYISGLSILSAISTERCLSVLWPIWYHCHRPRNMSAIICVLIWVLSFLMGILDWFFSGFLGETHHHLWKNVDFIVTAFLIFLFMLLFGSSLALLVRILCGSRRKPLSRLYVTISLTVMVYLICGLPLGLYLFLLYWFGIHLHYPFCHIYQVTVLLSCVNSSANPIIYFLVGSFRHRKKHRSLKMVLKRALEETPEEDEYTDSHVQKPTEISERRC
EXPERIMENTAL DETAILS: Agonist activity at rat MrgX1 transfected in HEK293 cells by FLIPR assay
pEC50: −log10 of the molar value.
OUTCOME MEASURE: pEC50

COc1ccc(-c2ccc(C(=O)Nc3cccc(Cn4ncc(N5CCNCC5)cc4=O)c3C)cc2)cn1 ... < 5.70

Below is a list of compounds. For each, state its recorded pEC50.
1. N=C(N)NC[C@@H]1CN[C@H](C(=O)N[C@@H](Cc2ccccc2)C(N)=O)C1
2. N=C(N)N[C@@H]1CN[C@H](C(=O)N[C@@H](Cc2ccccc2)C(N)=O)C1

Ans.
< 4.00
< 4.00
